molecular target: cannabinoid receptor CB1 (Homo sapiens, UniProt P21554); test: CB1 functional assay; assay type: cell-based; details: read-out: CB1 EC50
Sequence (P21554 whole entry): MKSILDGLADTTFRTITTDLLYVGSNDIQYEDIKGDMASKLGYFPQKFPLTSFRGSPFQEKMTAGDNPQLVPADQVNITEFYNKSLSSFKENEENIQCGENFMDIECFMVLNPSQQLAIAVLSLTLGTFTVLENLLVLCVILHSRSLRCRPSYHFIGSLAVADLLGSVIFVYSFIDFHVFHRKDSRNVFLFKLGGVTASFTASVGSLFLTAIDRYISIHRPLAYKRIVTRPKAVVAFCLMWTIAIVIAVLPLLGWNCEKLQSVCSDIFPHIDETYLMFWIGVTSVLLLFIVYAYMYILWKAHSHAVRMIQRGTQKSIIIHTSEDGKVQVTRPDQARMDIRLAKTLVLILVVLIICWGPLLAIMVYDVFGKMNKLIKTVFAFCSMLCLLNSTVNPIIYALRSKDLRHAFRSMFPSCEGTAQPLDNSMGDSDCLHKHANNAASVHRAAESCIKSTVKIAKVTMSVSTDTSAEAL
MEASURED METRIC: EC50 (nM)

>>> reported("O=C(NCCCCN1CCN(c2cccc(Cl)c2Cl)CC1)c1ccc(-c2ccccn2)cc1 [Compound 2, CJB090]")
840
